Biological target: endothelial lipase (EL) (Homo sapiens)
Construct: transformed by RAGE technology (Athersys) to overexpress endogenous EL; endogenous in cells; conditioned medium used as the enzyme source
Sequence (Q9Y5X9 21-500): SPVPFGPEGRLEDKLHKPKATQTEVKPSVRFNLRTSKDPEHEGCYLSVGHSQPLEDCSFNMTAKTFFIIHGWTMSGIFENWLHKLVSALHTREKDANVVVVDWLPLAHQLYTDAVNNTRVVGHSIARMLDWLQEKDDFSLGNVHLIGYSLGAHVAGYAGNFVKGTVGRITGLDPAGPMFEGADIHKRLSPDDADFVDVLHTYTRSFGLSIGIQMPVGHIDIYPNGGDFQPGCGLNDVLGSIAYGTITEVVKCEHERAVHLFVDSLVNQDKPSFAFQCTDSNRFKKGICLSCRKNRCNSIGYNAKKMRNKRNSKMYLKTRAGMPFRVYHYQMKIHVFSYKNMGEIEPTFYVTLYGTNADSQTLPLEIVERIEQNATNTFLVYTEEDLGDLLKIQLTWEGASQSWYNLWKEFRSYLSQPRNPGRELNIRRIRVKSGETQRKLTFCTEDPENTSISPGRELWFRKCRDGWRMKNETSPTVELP
Test: Endothelial lipase (EL) enzymatic assay with fluorescent substrate A10070 in DMPG vesicles
Settings: conditioned media from HT-1080 cells overexpressing endogenous EL, 20 min preincubation at 37° C.
Metric: IC50 (nM)

{"Compound": "Nc1c(C(=O)NCc2ccc(Oc3ccccc3)cc2)[nH]c(=O)[nH]c1=O", "Meas Value": 703}
{"Compound": "Nc1c(C(=O)NCc2cccc(-c3ccc(F)cc3)c2)[nH]c(=O)[nH]c1=O", "Meas Value": 4250}
{"Compound": "COc1ccc(CNc2c(C(=O)N[C@H](C)CCc3ccc(Cl)c(Cl)c3)[nH]c(=O)n(C)c2=O)cc1", "Meas Value": 358}
{"Compound": "C[C@H](COc1ccc(Cl)cc1F)NC(=O)c1[nH]c(=O)[nH]c(=O)c1N", "Meas Value": 1390}
{"Compound": "COc1cc(C)c(OC)c2c1CC(CNC(=O)c1[nH]c(=O)[nH]c(=O)c1N)CC2 (centres unmarked)", "Meas Value": 78}
{"Compound": "C[C@@H](NC(=O)c1[nH]c(=O)[nH]c(=O)c1O)c1cccc(OCc2ccccc2)c1", "Meas Value": 10}
{"Compound": "C[C@@H](NC(=O)c1[nH]c(=O)[nH]c(=O)c1O)c1cccc(-c2cnn(Cc3ccccc3)c2)c1", "Meas Value": 10}
{"Compound": "Nc1c(C(=O)NCC2Cc3ccccc3C(c3ccccc3)C2)[nH]c(=O)[nH]c1=O (centres unmarked)", "Meas Value": 207}

====

target: endothelial lipase (EL) (Homo sapiens); construct: transformed by RAGE technology (Athersys) to overexpress endogenous EL; endogenous in cells; conditioned medium used as the enzyme source; assay: Endothelial lipase (EL) enzymatic assay with fluorescent substrate A10070 in DMPG vesicles; settings: conditioned media from HT-1080 cells overexpressing endogenous EL, 20 min preincubation at 37° C.
# Lookup of reported IC50 keyed by entry
Metric: IC50 (nM)

{"Chemical String": "C[C@H](COc1ccc(Cl)c2c1CCC2)NC(=O)c1[nH]c(=O)[nH]c(=O)c1N", "Metric": "IC50", "Readout Unit": "nM", "Meas Value": 223}
{"Chemical String": "CC(C)(C)OC(=O)N1CCN(c2cccc(CNC(=O)c3[nH]c(=O)[nH]c(=O)c3N)c2)CC1", "Metric": "IC50", "Readout Unit": "nM", "Meas Value": 266}
{"Chemical String": "Nc1c(C(=O)NCc2c[nH]nc2-c2ccccc2)[nH]c(=O)[nH]c1=O", "Metric": "IC50", "Readout Unit": "nM", "Meas Value": 612}
{"Chemical String": "C[C@@H](NC(=O)c1[nH]c(=O)[nH]c(=O)c1N)c1cccc(-c2cnn(Cc3nc4ccccc4s3)c2)c1", "Metric": "IC50", "Readout Unit": "nM", "Meas Value": 369}
{"Chemical String": "Nc1c(C(=O)NCc2cccc(-n3cnc4ccccc43)c2)[nH]c(=O)[nH]c1=O", "Metric": "IC50", "Readout Unit": "nM", "Meas Value": 2200}
{"Chemical String": "Nc1c(C(=O)NC[C@H]2C[C@@H]2c2ccc(F)cc2)[nH]c(=O)[nH]c1=O", "Metric": "IC50", "Readout Unit": "nM", "Meas Value": 7400}
{"Chemical String": "C[C@@H](NC(=O)c1[nH]c(=O)[nH]c(=O)c1N)c1cccc(-c2cnn(Cc3cccc(C(N)=O)c3)c2)c1", "Metric": "IC50", "Readout Unit": "nM", "Meas Value": 883}
{"Chemical String": "C[C@H](COc1ccccc1-c1nnco1)NC(=O)c1[nH]c(=O)[nH]c(=O)c1N", "Metric": "IC50", "Readout Unit": "nM", "Meas Value": 4990}
{"Chemical String": "C[C@H](CCc1cccc(C(F)(F)F)c1)NC(=O)c1[nH]c(=O)[nH]c(=O)c1N", "Metric": "IC50", "Readout Unit": "nM", "Meas Value": 80}
{"Chemical String": "C[C@@H](NC(=O)c1[nH]c(=O)[nH]c(=O)c1N)c1cccc(-c2ccn(Cc3ccccc3)n2)c1", "Metric": "IC50", "Readout Unit": "nM", "Meas Value": 20}

Cited source: patent US9394260B2
